Target: T1, hRAGE-Fc (human, UniProt Q15109 23-342, biotin label in the selections and HTRF assays)
T1 construct: extracellular domain; also called biotin labeled hRAGE-Fc; Biotin-labeled RAGE-Fc; not shown: Fc part
T1 sequence (Q15109 23-342): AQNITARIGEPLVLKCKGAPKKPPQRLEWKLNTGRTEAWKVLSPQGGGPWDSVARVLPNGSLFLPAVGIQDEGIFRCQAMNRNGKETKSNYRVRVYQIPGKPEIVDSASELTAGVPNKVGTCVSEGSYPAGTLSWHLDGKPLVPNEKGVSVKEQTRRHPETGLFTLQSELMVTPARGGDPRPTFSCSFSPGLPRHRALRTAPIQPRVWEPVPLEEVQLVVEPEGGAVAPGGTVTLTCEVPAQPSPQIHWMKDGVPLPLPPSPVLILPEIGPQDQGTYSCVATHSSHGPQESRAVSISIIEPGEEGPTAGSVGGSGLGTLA
Experiment: IC50 of parental M4 scFv over IC50 of clone, HTRF competition
Experimental: Increases in binding to RAGE antigen were detected with the aid of a competition assay using parental XT-M4 antibody. […] This is an assay that measures the decrease in fluorescence upon binding of parental europium cryptate-labeled XT-M4 to RAGE in the presence of competing test scFv antibodies. […] The ability of the scFV to compete with parental XT-M4 antibody to bind to Biotin-labeled RAGE-Fc was determined. […]
Readout Kind: Fold gain scFv (hRAGE) (fold)
Kindly answer with a numeric value in fold, unit omitted.

S2R4A4_1G6 scFv (scFv) scFv: DIQMTQSPSSLSASVGDRVTITCRASQDVGFYVNWFQQKPGKAPRRLIYRATNLADGVPSRFSGSRSGTDFTLTISSLQPEDFATYYCLEFDEHPLTFGGGTKVEIKDGGGSGGGGSGGGGSSEVQLVESGGGLVQPGGSLRLSCAASGFTFNNYWMTWVRQAPGKGLEWVASIDNSGDNTYYPDSVKDRFTISRDNAKNSLYLQMNSLRAEDTAVYYCARGGDITNGFDYWGQGTLVTVSS ... 21.5
S2R4A3_10D8 scFv (scFv, also called 10D8 (b)) scFv: DIQMTQSPSSLSASVGDKVTITCRASQDVGFYVNWFQQKPGKAPRRLIYRATNLADGVPSRFSGSRSGTDFTLTISSLQPEDFATYYCLEFDEHPLTFGGGTKVEIKDGGGSGNGGSGGGGSSEVQLVESGGELVQPGGSLRLSCAASGFTFNNYWMTWVRQAPGKGLEWVASIDNSGDNTYYPDSVKDRFTISRDNAKNSLYLQMNSLRAEDTAVYYCARGGDITTGFDYWGQGTLVTVSS ... 12.7

Now for another entry.
Which Fold gain scFv (hRAGE) reading was recorded for the binder 6B2 scFv (scFv) scFv: DIQMTQSPSSLSASVGDRVTITCRASQDVGIYVNWFQQKPGKAPRRLIYRATNLADGVPSRFSGSRSGTDFTLTISSLQPEDFATYYCLEFDEHPLTFGGGTKVEIKDGGGSGGGGSGGGGSSEVQLVESGGGLVQPGGSLRLSCAASGFTFNNYWMTWVRQAPGKGLEWVASIDNSGDNTYYPDSVKDRFTISRDNAKNSLYLQMNSLRAEDTAVYYCARGGDIRVGLDVWGQGTLVTVSS ? 18.6
